For each record, write down the corresponding GI50.
RUN_DESCRIPTION: Growth inhibition of human leukemia cells after 48 hrs
Assay type: functional
CONDITION_LABEL: Leukemia cell
Kindly answer with a numeric value in nM, unit omitted.

Enquiry: Give a short answer stating reported GI50 for COc1cc2c(cc1C)NC(=O)/C2=C/c1c(Cl)n(C)c2cc(C)c(OC)cc12 .
Return: 18200

Enquiry: Tell us which GI50 value is on record for COc1ccc2c(c1)/C(=C\c1c(Cl)[nH]c3ccc(N(C)C)cc13)C(=O)N2
Return: 1620

Enquiry: Supply reported GI50 belonging to this compound: COc1cc2c(/C=C3/C(=O)Nc4ccccc43)c[nH]c2cc1C
Return: 90

---

RUN_DESCRIPTION: Growth inhibition of human melanoma cells after 48 hrs
Type: functional
CONDITION_LABEL: Melanoma cell
Structures can show the parent of a compound that is named as a salt.
Task for the reader: assign each of the following molecules its reported GI50.
Only the number, expressed in µM, is required.

Enquiry: Give GI50 for COc1cc2c(cc1C)NC(=O)/C2=C/c1c(Cl)n(C)c2cc(C)c(OC)cc12
Return: 15.1

Enquiry: Please list GI50 recorded for the molecule COc1ccc2c(c1)/C(=C\c1c(Cl)[nH]c3ccc(N(C)C)cc13)C(=O)N2
Return: 3.55

Enquiry: Indicate its recorded GI50; the molecule in question is O=C1Nc2cccc(Cl)c2/C1=C\c1c(Cl)[nH]c2c1ccc1ccccc12
Return: 4.57

Enquiry: State its GI50 for this molecule: COc1cc2c(/C=C3/C(=O)Nc4cc(Cl)ccc43)c(Cl)[nH]c2cc1C
Return: 0.23

Enquiry: Tell us which GI50 value is on record for COc1cc2c(cc1C)NC(=O)/C2=C/c1c[nH]c2ccccc12
Return: 13.2

Enquiry: Give recorded GI50. COc1cc2c(/C=C3/C(=O)N(C)c4ccccc43)c(Cl)n(C)c2cc1C
Return: 0.34

Enquiry: Note GI50 for the molecule shown: CC[C@]1(O)C[C@H]2CN(CCc3c([nH]c4ccccc34)[C@@](C(=O)OC)(c3cc4c(cc3OC)N(C=O)[C@H]3[C@@](O)(C(=O)OC)[C@H](OC(C)=O)[C@]5(CC)C=CCN6CC[C@]43[C@@H]65)C2)C1 [VINCRISTINE SULFATE]
Return: 0.16

Enquiry: Return value of GI50 for input COc1cc2c(cc1C)N(C)C(=O)/C2=C/c1c(Cl)[nH]c2ccccc12 , no commentary.
Return: 0.71

Enquiry: In one line, give reported GI50 of the entry Cc1cc2c(cc1O)/C(=C\c1c(Cl)[nH]c3c1ccc1ccccc13)C(=O)N2 .
Return: 6.46

Enquiry: Give the reported value of GI50 for this record: COc1cc2c(cc1C)N(C)C(=O)/C2=C/c1c(Cl)n(C)c2cc(C)c(OC)cc12
Return: 16.2

Enquiry: State, in one line, measured GI50 of CN(C)c1ccc2[nH]c(Cl)c(/C=C3/C(=O)Nc4ccc(Cl)cc43)c2c1
Return: 2.69

---

Task for the reader: assign each of the following molecules its reported CC50.
RUN_DESCRIPTION: Growth inhibition of human melanoma cells after 48 hrs
Assay type: functional
CONDITION_LABEL: Melanoma cell, read-out: LC50 (the source's name)
# unit: µM | format: bare number

Enquiry: Write down CC50 measured for item COc1cc2c(/C=C3/C(=O)Nc4ccc(N(C)C)cc43)c(Cl)n(C)c2cc1C
Return: 93.3

Enquiry: Identify measured CC50 corresponding to CN(C)c1ccc2[nH]c(Cl)c(/C=C3/C(=O)Nc4ccc(Cl)cc43)c2c1
Return: 37.1

Enquiry: Please report the measured CC50 for Cc1cc2c(cc1O)/C(=C\c1c(Cl)[nH]c3c1ccc1ccccc13)C(=O)N2
Return: 57.5

Enquiry: Identify measured CC50 corresponding to COc1cc2c(/C=C3/C(=O)N(C)c4ccc(O)cc43)c(Cl)n(C)c2cc1C
Return: 33.1

Enquiry: Give CC50 for the following molecule: COc1cc2c(/C=C3/C(=O)Nc4cc(Cl)ccc43)c(Cl)[nH]c2cc1C
Return: 35.5

Enquiry: Provide measured CC50 value, entry: COc1cc2c(/C=C3/C(=O)Nc4cc(Cl)ccc43)c(Cl)n(C)c2cc1C
Return: 50.1

Enquiry: // Input: COc1ccc2[nH]cc(/C=C3/C(=O)Nc4ccccc43)c2c1 . Output its CC50 only.
Return: 75.9

Enquiry: Give the reported value of CC50 for this record: COc1ccc2c(c1)/C(=C\c1c(Cl)[nH]c3ccc(N(C)C)cc13)C(=O)N2
Return: 44.7

Enquiry: Hello, please tell me recorded CC50 for this one: O=C1Nc2cccc(Cl)c2/C1=C\c1c(Cl)[nH]c2c1ccc1ccccc12
Return: 46.8

Enquiry: Dear colleague, please send me the reported CC50 for COc1cc2c(/C=C3/C(=O)Nc4ccc(Br)cc43)c(Cl)n(C)c2cc1C when you can.
Return: 31.6

---

RUN_DESCRIPTION: Growth inhibition of human renal cancer cells after 48 hrs
Type: functional
CONDITION_LABEL: Cancer cell lines, read-out: LC50 (the source's name)
Structures can show the parent of a compound that is named as a salt.
Mark each entry label 1 if its CC50 sits below 60 µM, and label 0 for all others.

Enquiry: In plain terms, does COc1cc2c(cc1C)N(C)C(=O)/C2=C/c1c(Cl)[nH]c2ccccc12 come in under 60 µM for CC50?
Return: label 1

Enquiry: Strictly below 60 µM in CC50? Cc1cc2c(cc1O)/C(=C\c1c(Cl)[nH]c3c1ccc1ccccc13)C(=O)N2
Return: label 0

Enquiry: Threshold test, CC50 < 60 µM: COc1cc2c(/C=C3/C(=O)Nc4ccc(Br)cc43)c(Cl)n(C)c2cc1C
Return: label 1

Enquiry: For this compound, is CC50 lower than 60 µM? CN(C)c1ccc2[nH]c(Cl)c(/C=C3/C(=O)Nc4ccc(Cl)cc43)c2c1
Return: label 1

Enquiry: # strict comparison: is reported CC50 < 60 µM? input = COc1cc2c(/C=C3/C(=O)Nc4cc(Cl)ccc43)c(Cl)[nH]c2cc1C
Return: label 1

Enquiry: For CC[C@]1(O)C[C@H]2CN(CCc3c([nH]c4ccccc34)[C@@](C(=O)OC)(c3cc4c(cc3OC)N(C=O)[C@H]3[C@@](O)(C(=O)OC)[C@H](OC(C)=O)[C@]5(CC)C=CCN6CC[C@]43[C@@H]65)C2)C1 [VINCRISTINE SULFATE] , is the recorded CC50 below the cut-off of 60 µM?
Return: label 0

Enquiry: Bench note: check whether COc1cc2c(/C=C3/C(=O)N(C)c4ccc(O)cc43)c[nH]c2cc1C shows CC50 below 60 µM
Return: label 0

Enquiry: Regarding CN(C)c1ccc2[nH]c(Cl)c(/C=C3/C(=O)Nc4ccc(O)cc43)c2c1 , kindly confirm whether its CC50 is beneath 60 µM.
Return: label 0

Enquiry: Hi there! Is CC50 for COc1cc2c(/C=C3/C(=O)Nc4ccc(Br)cc43)c(Cl)[nH]c2cc1C below 60 µM, do you know?
Return: label 1

Enquiry: Please determine if COc1cc2c(cc1C)N(C)C(=O)/C2=C/c1c(Cl)n(C)c2cc(C)c(OC)cc12 is below 60 µM in terms of CC50.
Return: label 0

Enquiry: For O=C1Nc2cccc(Cl)c2/C1=C\c1c(Cl)[nH]c2c1ccc1ccccc12 , is the recorded CC50 below the cut-off of 60 µM?
Return: label 1

Enquiry: State whether 60 µM exceeds CC50 recorded for COc1cc2c(cc1C)NC(=O)/C2=C/c1c[nH]c2ccccc12 .
Return: label 0

Enquiry: Please state whether CC50 is below 60 µM for COc1cc2c(/C=C3/C(=O)N(C)c4ccccc43)c(Cl)n(C)c2cc1C
Return: label 0

Enquiry: Would you kindly verify if CC50 of CN(C)c1ccc2[nH]c(Cl)c(/C=C3/C(=O)N(C)c4ccc(O)cc43)c2c1 is strictly less than 60 µM?
Return: label 0

Enquiry: CC50 strictly < 60 µM for this compound? COc1ccc2[nH]cc(/C=C3/C(=O)Nc4ccccc43)c2c1
Return: label 0

Enquiry: Does this compound meet the criterion CC50 < 60 µM? COc1cc2c(/C=C3/C(=O)N(C)c4ccc(O)cc43)c(Cl)n(C)c2cc1C
Return: label 1

Enquiry: Consider COc1ccc2c(c1)/C(=C\c1c(Cl)[nH]c3ccc(N(C)C)cc13)C(=O)N2 . Does its CC50 lie strictly below 60 µM?
Return: label 1

Enquiry: # TODO verify CC50 < 60 µM strictly for this compound: COc1cc2c(/C=C3/C(=O)Nc4cc(Cl)ccc43)c(Cl)n(C)c2cc1C
Return: label 0

---

For each entry below, report its log10 of GI50 value.
RUN_DESCRIPTION: Growth inhibition of human leukemia cells after 48 hrs
Assay type: functional
CONDITION_LABEL: Leukemia cell
Structures can show the parent of a compound that is named as a salt.
Heads up: the numbers are on a log10 scale; they represent GI50 in nM.

Enquiry: Using the record for O=C1Nc2cccc(Cl)c2/C1=C\c1c(Cl)[nH]c2c1ccc1ccccc12 , state its measured log10 of GI50.
Return: 3.74

Enquiry: In one line, give reported log10 of GI50 of the entry COc1cc2c(/C=C3/C(=O)Nc4ccc(Br)cc43)c(Cl)[nH]c2cc1C .
Return: 3.21

Enquiry: Identify measured log10 of GI50 corresponding to COc1cc2c(/C=C3/C(=O)Nc4ccc(Br)cc43)c(Cl)n(C)c2cc1C
Return: 3.40

Enquiry: // fetch log10 of GI50 given entry CN(C)c1ccc2[nH]c(Cl)c(/C=C3/C(=O)Nc4ccc(Cl)cc43)c2c1
Return: 3.21

Enquiry: Fill in reported log10 of GI50 for this entry: COc1cc2c(/C=C3/C(=O)N(C)c4ccc(O)cc43)c[nH]c2cc1C
Return: 3.54

Enquiry: Annotate the compound COc1cc2c(/C=C3/C(=O)Nc4ccc(N(C)C)cc43)c(Cl)n(C)c2cc1C with its measured log10 of GI50.
Return: 4.00

Enquiry: Read the entry COc1cc2c(/C=C3/C(=O)Nc4cc(Cl)ccc43)c(Cl)[nH]c2cc1C and write its reported log10 of GI50.
Return: 2.15

Enquiry: Consider the compound Cc1cc2c(cc1O)/C(=C\c1c(Cl)[nH]c3c1ccc1ccccc13)C(=O)N2 . State its measured log10 of GI50.
Return: 3.52

Enquiry: Consider the compound CN(C)c1ccc2[nH]c(Cl)c(/C=C3/C(=O)N(C)c4ccc(O)cc43)c2c1 . State its measured log10 of GI50.
Return: 4.22

Enquiry: Give the value of log10 of GI50 reported for the following: COc1cc2c(/C=C3/C(=O)Nc4cc(Cl)ccc43)c(Cl)n(C)c2cc1C
Return: 1.30

Enquiry: Input CC[C@]1(O)C[C@H]2CN(CCc3c([nH]c4ccccc34)[C@@](C(=O)OC)(c3cc4c(cc3OC)N(C=O)[C@H]3[C@@](O)(C(=O)OC)[C@H](OC(C)=O)[C@]5(CC)C=CCN6CC[C@]43[C@@H]65)C2)C1 [VINCRISTINE SULFATE] , output reported log10 of GI50.
Return: 2.00

Enquiry: Provide log10 of GI50 value for the following compound: COc1cc2c(cc1C)N(C)C(=O)/C2=C/c1c(Cl)n(C)c2cc(C)c(OC)cc12
Return: 3.84

Enquiry: // fetch log10 of GI50 given entry COc1cc2c(cc1C)NC(=O)/C2=C/c1c[nH]c2ccccc12
Return: 3.94

Enquiry: Query log10 of GI50 for COc1cc2c(/C=C3/C(=O)N(C)c4ccc(O)cc43)c(Cl)n(C)c2cc1C
Return: 1.70

Enquiry: Fill in log10 of GI50 for record COc1cc2c(cc1C)N(C)C(=O)/C2=C/c1c(Cl)[nH]c2ccccc12
Return: 2.41

Enquiry: Return reported log10 of GI50. Input compound: COc1cc2c(/C=C3/C(=O)N(C)c4ccccc43)c(Cl)n(C)c2cc1C
Return: 2.40

Enquiry: For the compound COc1ccc2[nH]cc(/C=C3/C(=O)Nc4ccccc43)c2c1 , give its measured log10 of GI50 value.
Return: 3.37

Enquiry: Give recorded log10 of GI50. CN(C)c1ccc2[nH]c(Cl)c(/C=C3/C(=O)Nc4ccc(O)cc43)c2c1
Return: 3.35

Enquiry: Quickly give me recorded log10 of GI50 for COc1cc2c(/C=C3/C(=O)N(C)c4ccccc43)c[nH]c2cc1C
Return: 3.30
